System: CCRF-CEM
Experiment: Growth inhibition of human CCRF-CEM cells after 48 hrs
Type: functional
GI50 for assorted compounds

Use the examples below as a reference point.
{"compound": "Cn1c2ccccc2c2c(=O)n(CCCC(=O)NCCc3c[nH]cn3)c3c(-c4ccccc4)nnn3c21", "GI50": "1.51 µM"}
{"compound": "CCCCN(CCCC)CCCn1c(=O)c2c3ccccc3n(C)c2n2nnc(-c3ccccc3)c12", "GI50": "4.17 µM"}
{"compound": "COC(=O)C(Cc1c[nH]cn1)NC(=O)CNC(=O)CCCn1c(=O)c2c3ccccc3n(C)c2n2nnc(-c3ccccc3)c12 (stereo unspecified)", "GI50": "> 100 µM"}
{"compound": "Cn1c2ccccc2c2c(=O)n(CCCC(=O)N(C(=O)NC3CCCCC3)C3CCCCC3)c3c(-c4ccccc4)nnn3c21", "GI50": "> 100 µM"}

Entry Cn1c2ccccc2c2c(=O)n(CCCC(=O)NCC(=O)N(C(=O)NC3CCCCC3)C3CCCCC3)c3c(-c4ccccc4)nnn3c21 : reported GI50 = ?
8.32 µM

Quick one: CCOC(=O)CNC(=O)CCCn1c(=O)c2c3ccccc3n(C)c2n2nnc(-c3ccccc3)c12
26.3 µM

---

System: RXF 393
Experiment: Growth inhibition of human RXF393 cells after 48 hrs
Assay type: functional
Details: RXF 393, 48 h, read-out: pTGI (converted)
quantity.measured: TGI (µM)
# value in µM; strip the unit string

Field: example entries. Status: answers known.
{"molecule.smiles": "CCCCN(CCCC)CCCn1c(=O)c2c3ccccc3n(C)c2n2nnc(-c3ccccc3)c12", "TGI (µM)": 42.7}
{"molecule.smiles": "Cn1c2ccccc2c2c(=O)n(CCCC(=O)NCCc3c[nH]cn3)c3c(-c4ccccc4)nnn3c21", "TGI (µM)": 18.2}
{"molecule.smiles": "CCOC(=O)CNC(=O)CCCn1c(=O)c2c3ccccc3n(C)c2n2nnc(-c3ccccc3)c12", "TGI (µM)": 4.37}

Consider the record given below.
# get_value(readout='TGI', item= Cn1c2ccccc2c2c(=O)n(CCCC(=O)NCC(=O)N(C(=O)NC3CCCCC3)C3CCCCC3)c3c(-c4ccccc4)nnn3c21 )
37.2

---

Tested on: M14
Assay: Growth inhibition of human M14 cells after 48 hrs
Assay type: functional
Details: M14, 48 h
Quick reference: GI50 of the listed items.
Only the number, expressed in µM, is required.

These solved cases illustrate the format of a correct answer.
{"molecule.smiles": "CCOC(=O)CNC(=O)CCCn1c(=O)c2c3ccccc3n(C)c2n2nnc(-c3ccccc3)c12", "GI50 [µM]": 18.6}
{"molecule.smiles": "CCCCN(CCCC)CCCn1c(=O)c2c3ccccc3n(C)c2n2nnc(-c3ccccc3)c12", "GI50 [µM]": 21.4}
{"molecule.smiles": "Cn1c2ccccc2c2c(=O)n(CCCC(=O)NCCc3c[nH]cn3)c3c(-c4ccccc4)nnn3c21", "GI50 [µM]": 12}

Attention now turns to another entry.
Need GI50, item Cn1c2ccccc2c2c(=O)n(CCCC(=O)NCC(=O)N(C(=O)NC3CCCCC3)C3CCCCC3)c3c(-c4ccccc4)nnn3c21
30.9

---

Listed next: entries and their corresponding GI50.
Test system: CAKI-1
Experiment: Growth inhibition of human CAKI1 cells after 48 hrs
Assay type: functional
Settings: CAKI-1, 48 h
Field format: number, assumed µM, no unit text.

{"molecule.smiles": "Cn1c2ccccc2c2c(=O)n(CCCC(=O)NCCc3c[nH]cn3)c3c(-c4ccccc4)nnn3c21", "GI50 / µM": 12}
{"molecule.smiles": "CCOC(=O)CNC(=O)CCCn1c(=O)c2c3ccccc3n(C)c2n2nnc(-c3ccccc3)c12", "GI50 / µM": 8.32}

Endpoint output: GI50 of CCCCN(CCCC)CCCn1c(=O)c2c3ccccc3n(C)c2n2nnc(-c3ccccc3)c12 . Value?
50.1

Further, for Cn1c2ccccc2c2c(=O)n(CCCC(=O)NCC(=O)N(C(=O)NC3CCCCC3)C3CCCCC3)c3c(-c4ccccc4)nnn3c21 ?
32.4

---

The following molecules are shown together with reported TGI values.
Tested on: NCI-H226
Assay: Growth inhibition of human NCI-H226 cells after 48 hrs
Type: functional
Conditions: NCI-H226, 48 h, read-out: pTGI

{"molecule.smiles": "CCOC(=O)CNC(=O)CCCn1c(=O)c2c3ccccc3n(C)c2n2nnc(-c3ccccc3)c12", "TGI": "> 50.1 µM"}

Please give the measured TGI for this molecule: Cn1c2ccccc2c2c(=O)n(CCCC(=O)NCCc3c[nH]cn3)c3c(-c4ccccc4)nnn3c21
> 50.1 µM

Then this molecule: CCCCN(CCCC)CCCn1c(=O)c2c3ccccc3n(C)c2n2nnc(-c3ccccc3)c12
> 100 µM

And Cn1c2ccccc2c2c(=O)n(CCCC(=O)NCC(=O)N(C(=O)NC3CCCCC3)C3CCCCC3)c3c(-c4ccccc4)nnn3c21 ?
> 100 µM

---

System: Malme-3M
Test: Growth inhibition of human MALME3M cells after 48 hrs
Assay type: functional
quantity.measured: GI50 (µM)
Express it in µM; write the number only.

Checklist item: GI50 tested on Malme-3M, entry Cn1c2ccccc2c2c(=O)n(CCCC(=O)NCCc3c[nH]cn3)c3c(-c4ccccc4)nnn3c21 , value?
7.59

Would you mind doing Cn1c2ccccc2c2c(=O)n(CCCC(=O)NCC(=O)N(C(=O)NC3CCCCC3)C3CCCCC3)c3c(-c4ccccc4)nnn3c21 as well?
46.8

Queued: CCCCN(CCCC)CCCn1c(=O)c2c3ccccc3n(C)c2n2nnc(-c3ccccc3)c12
28.2

---

TGI values by entry
Test system: HOP-62
Test: Growth inhibition of human HOP62 cells after 48 hrs
Assay type: functional
Conditions: HOP-62, 48 h, read-out: pTGI (converted)

{"molecule.smiles": "CCCCN(CCCC)CCCn1c(=O)c2c3ccccc3n(C)c2n2nnc(-c3ccccc3)c12", "measured": "> 100 µM"}
{"molecule.smiles": "Cn1c2ccccc2c2c(=O)n(CCCC(=O)NCC(=O)N(C(=O)NC3CCCCC3)C3CCCCC3)c3c(-c4ccccc4)nnn3c21", "measured": "36.3 µM"}
{"molecule.smiles": "CCOC(=O)CNC(=O)CCCn1c(=O)c2c3ccccc3n(C)c2n2nnc(-c3ccccc3)c12", "measured": "17.8 µM"}

Continue with the next molecule.
Which TGI is listed for Cn1c2ccccc2c2c(=O)n(CCCC(=O)NCCc3c[nH]cn3)c3c(-c4ccccc4)nnn3c21 ?
17 µM

---

System: NCI/ADR-RES
Test: Growth inhibition of human NCI/ADR-RES cells after 48 hrs
Type: functional
Quick list: GI50 per entry.

{"molecule": "COC(=O)C(Cc1c[nH]cn1)NC(=O)CNC(=O)CCCn1c(=O)c2c3ccccc3n(C)c2n2nnc(-c3ccccc3)c12 (stereo unspecified)", "target.under.test": "NCI/ADR-RES", "GI50": "> 100 µM"}
{"molecule": "Cn1c2ccccc2c2c(=O)n(CCCC(=O)NCC(=O)N(C(=O)NC3CCCCC3)C3CCCCC3)c3c(-c4ccccc4)nnn3c21", "target.under.test": "NCI/ADR-RES", "GI50": "15.5 µM"}
{"molecule": "CCCCN(CCCC)CCCn1c(=O)c2c3ccccc3n(C)c2n2nnc(-c3ccccc3)c12", "target.under.test": "NCI/ADR-RES", "GI50": "14.1 µM"}
{"molecule": "Cn1c2ccccc2c2c(=O)n(CCCC(=O)N(C(=O)NC3CCCCC3)C3CCCCC3)c3c(-c4ccccc4)nnn3c21", "target.under.test": "NCI/ADR-RES", "GI50": "95.5 µM"}
{"molecule": "CCOC(=O)CNC(=O)CCCn1c(=O)c2c3ccccc3n(C)c2n2nnc(-c3ccccc3)c12", "target.under.test": "NCI/ADR-RES", "GI50": "> 50.1 µM"}

Continue with the next molecule.
Look up GI50: Cn1c2ccccc2c2c(=O)n(CCCC(=O)NCCc3c[nH]cn3)c3c(-c4ccccc4)nnn3c21
> 50.1 µM

---

# maps each entry to its GI50
System: EKVX
Assay: Growth inhibition of human EKVX cells after 48 hrs
Type: functional
Write the number in µM without appending the unit.

{"molecule.smiles": "Cn1c2ccccc2c2c(=O)n(CCCC(=O)NCCc3c[nH]cn3)c3c(-c4ccccc4)nnn3c21", "GI50 (µM)": 10}

// moving on: another record for GI50
# get_value(readout='GI50', item= CCCCN(CCCC)CCCn1c(=O)c2c3ccccc3n(C)c2n2nnc(-c3ccccc3)c12 )
56.2

---

Test system: COLO 205
Test: Growth inhibition of human COLO205 cells after 48 hrs
Format: functional
Details: COLO 205, 48 h
quantity.measured: GI50

Some compounds with recorded GI50:
{"compound": "CCOC(=O)CNC(=O)CCCn1c(=O)c2c3ccccc3n(C)c2n2nnc(-c3ccccc3)c12", "GI50": "> 50.1 µM"}
{"compound": "COC(=O)C(Cc1c[nH]cn1)NC(=O)CNC(=O)CCCn1c(=O)c2c3ccccc3n(C)c2n2nnc(-c3ccccc3)c12 (stereo not drawn)", "GI50": "> 100 µM"}

Okay, now this compound:
What does the record list as GI50 for Cn1c2ccccc2c2c(=O)n(CCCC(=O)N(C(=O)NC3CCCCC3)C3CCCCC3)c3c(-c4ccccc4)nnn3c21 ?
> 100 µM
